Molecular target: isolated recombinant JAK1 kinase domain (Homo sapiens (Human), UniProt P23458)
Sequence (P23458 875-1153): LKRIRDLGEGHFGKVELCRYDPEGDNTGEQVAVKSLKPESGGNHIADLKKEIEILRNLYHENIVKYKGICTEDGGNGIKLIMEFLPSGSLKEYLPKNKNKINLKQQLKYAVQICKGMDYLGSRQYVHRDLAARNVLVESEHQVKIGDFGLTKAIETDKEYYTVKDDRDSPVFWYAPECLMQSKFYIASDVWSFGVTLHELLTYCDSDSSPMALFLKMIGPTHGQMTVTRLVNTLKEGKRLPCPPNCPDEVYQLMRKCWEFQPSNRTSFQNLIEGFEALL
Assay: JAK1 enzyme assay (Caliper LabChip, Ki)
Assay type: biochemical
Settings: read-out: JAK1 Ki
quantity: pKi
// scale note: pKi = -log10(conc_M); give the bare number

isolated recombinant JAK1 kinase domain (Homo sapiens (Human), UniProt P23458) assay, compound COC(=O)Nc1nn(C2(CC#N)CCN(Cc3ccc(-n4nccn4)c(O)c3)CC2F)cc1C(N)=O (stereo not drawn) , recorded pKi = 9.46

Here N#CCC1(n2cc(C(N)=O)c(NC(=O)C3CC3C#N)n2)CCN(Cc2cc(O)c(-c3ccccc3)cc2F)CC1F (stereo not drawn) was tested on isolated recombinant JAK1 kinase domain (Homo sapiens (Human), UniProt P23458), and its pKi came to 9.72

// assay isolated recombinant JAK1 kinase domain (Homo sapiens (Human), UniProt P23458), entry N#CCC1(n2cc(C(N)=O)c(NC(=O)C3CC3)n2)CCC(Nc2ccc(-c3ccco3)cc2)CC1 (stereo not drawn) , pKi value = 9.60

###

Biological target: isolated recombinant JAK2 kinase domain (Homo sapiens (Human), UniProt O60674)
Sequence (O60674 849-1124): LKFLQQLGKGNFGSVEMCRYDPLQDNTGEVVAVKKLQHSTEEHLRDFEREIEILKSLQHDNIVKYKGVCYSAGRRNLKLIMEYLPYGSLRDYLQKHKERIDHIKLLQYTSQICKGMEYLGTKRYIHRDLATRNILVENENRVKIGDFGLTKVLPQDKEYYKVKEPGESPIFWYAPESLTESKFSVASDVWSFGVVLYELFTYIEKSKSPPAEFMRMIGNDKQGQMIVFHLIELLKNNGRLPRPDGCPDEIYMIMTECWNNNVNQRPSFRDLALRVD
Test: JAK2 enzyme assay (Caliper LabChip, Ki)
Known pKi of a selection of compounds
// pKi here means minus log10 of the molar concentration (mol/L)

Consider the reported pKi for these compounds:
compound | val
N#CCC1(n2cc(C(N)=O)c(NC(=O)C3CC3)n2)CCN(Cc2ccccc2C#N)CC1 [Example 64] | 7.08
COC(=O)Nc1nn(C2(CC#N)CCN(Cc3ccc(-c4ccc(C)o4)cc3)CC2F)cc1C(N)=O (stereo not drawn) [Example 246] | 9.28
CCn1ccc(-c2ccc(CN3CCC(CC#N)(n4cc(C(N)=O)c(NC(=O)OC)n4)C(F)C3)cc2)n1 (stereo not drawn) [Example 216] | 9.15

Cc1ccc(-c2ccc(CN3CCC(CC#N)(n4cc(C(N)=O)c(NC(=O)C5CC5)n4)C(F)C3)cc2)o1 (stereo not drawn) [Example 223] on isolated recombinant JAK2 kinase domain (Homo sapiens (Human), UniProt O60674) gives pKi = 9.47

Measured pKi for this entry Cc1c(CN2CCC(CC#N)(n3cc(C(N)=O)c(NC(=O)C4CC4C#N)n3)C(F)C2)ccc(-c2ccccc2)c1O (stereo not drawn) [Example 250] on isolated recombinant JAK2 kinase domain (Homo sapiens (Human), UniProt O60674): 9.08

The value of pKi recorded for N#CCC1(n2cc(C(N)=O)c(NC(=O)C3CC3)n2)CCN(Cc2cccc(Cl)c2)CC1 [Example 59] when tested on isolated recombinant JAK2 kinase domain (Homo sapiens (Human), UniProt O60674) reads 7.44

Query COC(=O)Nc1nn(C2(CC#N)CCN(Cc3ccc(C4=CCCCC4)c(O)c3)CC2F)cc1C(N)=O (stereo not drawn) [Example 258] on isolated recombinant JAK2 kinase domain (Homo sapiens (Human), UniProt O60674); pKi returned: 9.54

Assay isolated recombinant JAK2 kinase domain (Homo sapiens (Human), UniProt O60674), sample Cc1c(CN2CCC(CC#N)(n3cc(C(N)=O)c(NC(=O)C4CC4)n3)CC2)ccc(-c2ccccc2)c1O [Example 194] , pKi read: 8.66

Item: N#CCC1(n2cc(C(N)=O)c(NC(=O)C3CC3)n2)CCN(Cc2ccc(-c3ccccc3)cc2O)CC1 [Example 204] | System: isolated recombinant JAK2 kinase domain (Homo sapiens (Human), UniProt O60674) | pKi: 8.74

Item CS(=O)(=O)Nc1ccc(CN2CCC(CC#N)(n3cc(C(N)=O)c(NC(=O)C4CC4)n3)CC2)cc1 [Example 46] ; assay system isolated recombinant JAK2 kinase domain (Homo sapiens (Human), UniProt O60674); pKi reported as 6.55

Tested on isolated recombinant JAK2 kinase domain (Homo sapiens (Human), UniProt O60674): N#CCC1(n2cc(C(N)=O)c(NC(=O)C3CC3C#N)n2)CCN(CC2CCC(c3ccccc3)CC2)CC1F (stereo not drawn) [Example 228] . Observed pKi: 8.11

The value of pKi recorded for COC(=O)Nc1nn(C2(CC#N)CCN(Cc3ccc(C4=CCCC4)nc3F)CC2F)cc1C(N)=O (stereo not drawn) [Example 272] when tested on isolated recombinant JAK2 kinase domain (Homo sapiens (Human), UniProt O60674) reads 8.80

###

Biological target: isolated recombinant JAK1 kinase domain (Homo sapiens (Human), UniProt P23458)
Assay: JAK1 enzyme assay (Caliper LabChip, Ki)
Format: biochemical
Conditions: read-out: JAK1 Ki
quantity: pKi
pKi (log units): -log10 of the concentration in mol/L.

compound | target-desc | quantity | val
COC(=O)Nc1nn(C2(CC#N)CCN(Cc3ccc(-c4ncco4)cc3)CC2F)cc1C(N)=O (stereo not shown) | isolated recombinant JAK1 kinase domain (Homo sapiens (Human), UniProt P23458) | pKi | 8.96
N#CCC1(n2cc(C(N)=O)c(NC(=O)C3CC3)n2)CCN(Cc2ccc(Br)cc2)CC1 | isolated recombinant JAK1 kinase domain (Homo sapiens (Human), UniProt P23458) | pKi | 8.64
COC(=O)Nc1nn(C2(CC#N)CCN(Cc3cc(C(F)F)ccc3F)CC2F)cc1C(N)=O (stereo not shown) | isolated recombinant JAK1 kinase domain (Homo sapiens (Human), UniProt P23458) | pKi | 8.85
N#CCC1(n2cc(C(N)=O)c(NC(=O)C3CC3)n2)CCN(Cc2ccc(OC(F)(F)F)cc2)CC1 | isolated recombinant JAK1 kinase domain (Homo sapiens (Human), UniProt P23458) | pKi | 7.63
N#CCC1(n2cc(C(N)=O)c(NC(=O)C3CC3)n2)CCN(C(=O)Cc2ccccc2)CC1 | isolated recombinant JAK1 kinase domain (Homo sapiens (Human), UniProt P23458) | pKi | 7.51
N#CCC1(n2cc(C(N)=O)c(NC(=O)C3CC3)n2)CCN(Cc2ccc(-c3cccc(F)c3)c(O)c2)CC1 | isolated recombinant JAK1 kinase domain (Homo sapiens (Human), UniProt P23458) | pKi | 9.40

Next up:
For "N#CC[C@]1(n2cc(C(N)=O)c(NC(=O)C3CC3)n2)CCN(Cc2ccccc2)C[C@H]1F" the compound record lists pKi as 7.57

###

Target: isolated recombinant JAK1 kinase domain (Homo sapiens (Human))
Assay: JAK1 enzyme assay (Caliper LabChip, Ki)
Type: biochemical
The molecules listed here are annotated with their log10 Ki.
Response schema: value (number) is log10 of Ki in units of µM.

molecule | log10 Ki
N#CC[C@]1(n2cc(C(N)=O)c(NC(=O)C3CC3)n2)CC[C@H](NCc2cccc(F)c2)CC1 | -1.84

Field log10 Ki (entry N#CCC1(n2cc(C(N)=O)c(NC(=O)C3CC3)n2)CCN(C(CO)c2ccccc2)CC1 (stereo not shown) ) reads -1.16

Notebook: "COC1CN([C@H]2CC[C@@](CC#N)(n3cc(C(N)=O)c(NC(=O)C4CC4)n3)CC2)C1" , log10 Ki read as -2.48

For reference, reported log10 Ki for "N#CC[C@]1(n2cc(C(N)=O)c(NC(=O)C3CC3)n2)CC[C@@H](N2CC(F)(F)C2)CC1" stands at -2.33

"N#CC[C@]1(n2cc(C(N)=O)c(NC(=O)C3CC3)n2)CC[C@@H](NC2CCC(F)(F)CC2)CC1" has a reported log10 Ki of -1.85

###

Target: isolated recombinant JAK2 kinase domain (Homo sapiens (Human))
Experiment: JAK2 enzyme assay (Caliper LabChip, Ki)
Mark y only when Ki stays strictly below 0.005 µM. Values equal to the cut-off are n.

molecule | category
N#CCC1(n2cc(C(N)=O)c(NC(=O)C3CC3)n2)CCN(C(=O)OCC2CC2)CC1 | n
N#CCC1(n2cc(C(N)=O)c(NC(=O)[C@H]3C[C@@H]3C(F)(F)F)n2)CCN(CC(F)(F)F)CC1 | n
CC(C)OC1(C(F)(F)F)CN([C@H]2CC[C@@](CC#N)(n3cc(C(N)=O)c(NC(=O)C4CC4)n3)CC2)C1 | n
N#CCC1(n2cc(C(N)=O)c(NC(=O)C3CC3)n2)CCN(C(CO)c2ccccc2)CC1 (centres unmarked) | n
N#CCC1(n2cc(C(N)=O)c(NC(=O)C3CC3)n2)CCN(CC2CCC(c3ccccc3)CC2)CC1F (centres unmarked) [Example 234] | y
CCOC1(C(F)(F)F)CN([C@H]2CC[C@@](CC#N)(n3cc(C(N)=O)c(NC(=O)C4CC4)n3)CC2)C1 (single isomer, unassigned) | n

Is the reported Ki for "N#CC[C@]1(n2cc(C(N)=O)c(NC(=O)C3CC3)n2)CC[C@H](NCc2ccc(-c3ccccc3)cc2)CC1" strictly below 0.005 µM? n

Does the reported Ki of the following molecule sit strictly below 0.005 µM? "COC1CN([C@H]2CC[C@@](CC#N)(n3cc(C(N)=O)c(NC(=O)C4CC4)n3)CC2)C1" n

Please check: Ki for "COCc1cccc(-c2ccc(CN3CCC(CC#N)(n4cc(C(N)=O)c(NC(=O)C5CC5)n4)CC3)cc2)c1" , strictly under 0.005 µM or not? n

Please let me know if "N#CC[C@]1(n2cc(C(N)=O)c(NC(=O)C3CC3)n2)CC[C@@H](N2CC(O)(C(F)(F)F)C2)CC1" shows Ki below 0.005 µM. n

# TODO verify Ki < 0.005 µM strictly for this molecule: N#CCC1(n2cc(C(N)=O)c(NC(=O)C3CC3)n2)CCC(Nc2ccccc2)CC1 (centres unmarked) n

I'd appreciate it if you could check whether "N#CCC1(n2cc(C(N)=O)c(NC(=O)C3CC3)n2)CCN(Cc2ccccc2F)CC1" has Ki smaller than 0.005 µM. n

Criterion: Ki strictly below 0.005 µM. Is it met by "N#CCC1(n2cc(C(N)=O)c(NC(=O)C3CC3)n2)CCN(Cc2ccc(-c3ccccc3)c(F)c2)CC1" ? y

Please determine if "CS(=O)(=O)c1ccc(CN2CCC(CC#N)(n3cc(C(N)=O)c(NC(=O)C4CC4)n3)CC2)cc1" is below 0.005 µM in terms of Ki. n

Does the reported Ki of the following molecule sit strictly below 0.005 µM? "N#CCC1(n2cc(C(N)=O)c(NC(=O)C3CC3)n2)CCN(Cc2ccc(Cl)cc2)CC1" n

Input "CCC1(n2cc(C(N)=O)c(Nc3ccc(S(=O)(=O)C(F)F)cc3)n2)CCN(Cc2cc(O)ccc2F)CC1" ; condition: Ki strictly below 0.005 µM. Does it hold? y

Please check: Ki for COC(=O)Nc1nn(C2(CC#N)CCN(Cc3ccc(C4=CCCC4)c(O)c3)CC2F)cc1C(N)=O (centres unmarked) , strictly under 0.005 µM or not? y

Threshold test, Ki < 0.005 µM: N#CCC1(n2cc(C(N)=O)c(NC(=O)C3CC3(F)F)n2)CCN(CC(F)(F)F)CC1 (centres unmarked) n

Does this molecule meet the criterion Ki < 0.005 µM? COC(=O)Nc1nn(C2(CC#N)CCN(Cc3cc(O)c(-c4ccccc4)cc3F)CC2F)cc1C(N)=O (centres unmarked) y

Is it true that Ki reported for "N#CCC1(n2cc(C(N)=O)c(NC(=O)C3CC3)n2)CCN(Cc2ccc(-n3nccn3)c(O)c2)CC1" is less than 0.005 µM? y

Is Ki of N#CCC1(n2cc(C(N)=O)c(NC(=O)[C@H]3C[C@@H]3C3CC3)n2)CCN(CC(F)(F)F)CC1 (stereo in doubt) strictly below 0.005 µM? n

State whether 0.005 µM exceeds Ki recorded for COC(=O)Nc1nn(C2(CC#N)CCN(Cc3ccc(C4=CCCC4)cc3)CC2F)cc1C(N)=O (centres unmarked) . y

Please indicate whether the reported Ki of CC#Cc1ccc(CN2CCC(CC#N)(n3cc(C(N)=O)c(NC(=O)OC)n3)C(F)C2)cc1 (centres unmarked) is strictly below 0.005 µM. y

Bench note: check whether "N#CC[C@]1(n2cc(C(N)=O)c(NC(=O)C3CC3)n2)CC[C@H](NCc2ccccc2)CC1" shows Ki below 0.005 µM n

Is Ki strictly under 0.005 µM for the entry N#CCC1(n2cc(C(N)=O)c(NC(=O)C3CC3)n2)CCN(Cc2ccc(C3CCCCC3)cc2)CC1F (centres unmarked) ? n

API: query returns whether the molecule falls strictly under 0.005 µM in Ki. Query: C=Cc1cc(F)c(CN2CCC(CC#N)(n3cc(C(N)=O)c(NC(=O)OC)n3)C(F)C2)cc1O (centres unmarked) y

Hello, is Ki of the following molecule strictly smaller than 0.005 µM? "C[C@@H]1C[C@H]1C(=O)Nc1nn(C2(CC#N)CCN(CC(F)(F)F)CC2)cc1C(N)=O" n

Quick check: does N#CCC1(n2cc(C(N)=O)c(NC(=O)C3CC3)n2)CCC(Nc2ccc(-n3nccn3)cc2)CC1 (centres unmarked) have Ki under 0.005 µM? y

Values were extracted from patent US11731943B2.
